# target.entity: T1, ZFP SBS#579 (synthetic)
# T1 chain: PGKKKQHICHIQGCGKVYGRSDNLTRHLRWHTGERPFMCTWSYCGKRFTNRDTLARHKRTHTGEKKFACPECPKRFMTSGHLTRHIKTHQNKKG
# experiment: EMSA
# condition.summary: tags: MBP fusion
observation.type: pKd
// scale note: pKd = -log10(conc_M); give the bare number

Which pKd value is on record for GGGGTTGAGG (dsDNA) DNA 1: GGGGTTGAGG DNA 2: CCTCAACCCC ?
6.70
